The origin of these recorded values is patent US11466047B2.

TEST SYSTEM: full-length WT STING (Homo sapiens (Human), UniProt Q86WV6, H232R)
Sequence (Q86WV6 whole entry, looked up, stated change not applied): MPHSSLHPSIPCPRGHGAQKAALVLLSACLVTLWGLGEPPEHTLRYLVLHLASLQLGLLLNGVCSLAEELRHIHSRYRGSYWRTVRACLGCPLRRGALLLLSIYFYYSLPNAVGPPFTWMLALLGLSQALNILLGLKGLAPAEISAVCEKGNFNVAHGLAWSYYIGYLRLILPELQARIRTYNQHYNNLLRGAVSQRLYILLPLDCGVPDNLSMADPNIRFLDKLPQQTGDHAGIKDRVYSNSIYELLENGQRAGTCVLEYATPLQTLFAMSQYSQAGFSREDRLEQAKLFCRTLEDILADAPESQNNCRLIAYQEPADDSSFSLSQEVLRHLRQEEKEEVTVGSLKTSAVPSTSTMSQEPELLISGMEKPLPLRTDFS
TEST DETAILS: 3H-cGAMP filtration binding assay (WT STING)
ASSAY CONDITIONS: competition with tritiated cGAMP ligand, WT STING membrane; read-out: EC50
pEC50: −log10 of the molar value.
Listed molecules paired with reported pEC50
QUANTITY MEASURED: pEC50

molecule="Nc1nc2c(ncn2[C@@H]2O[C@@H]3COP(=S)(S)O[C@H]4C[C@H](n5cnc6c(N)ncnc65)O[C@@H]4COP(=O)(O)O[C@@H]2C3)c(=O)[nH]1 (some centres unmarked)" value_relation_sign== value_measured=9.00
molecule="Nc1nc2c(ncn2[C@@H]2O[C@@H]3COP(=S)(S)O[C@H]4C[C@H](n5ccc6c(N)ncnc65)O[C@@H]4COP(O)(=S)O[C@@H]2C3)c(=O)[nH]1 (single isomer, unassigned) [Example 5]" value_relation_sign== value_measured=8.10
molecule="Nc1nc2c(ncn2[C@@H]2O[C@@H]3COP(=S)(S)O[C@H]4C[C@H](n5cnc6c(N)ncnc65)O[C@@H]4COP(O)(=S)O[C@@H]2C3)c(=O)[nH]1 (single isomer, unassigned) [Example 4]" value_relation_sign=> value_measured=9.00
molecule="Nc1nc2c(ncn2[C@@H]2S[C@@H]3COP(=S)(S)O[C@H]4[C@H](F)[C@H](n5cnc6c(N)ncnc65)O[C@@H]4COP(O)(=S)O[C@@H]2[C@@H]3O)c(=O)[nH]1 (some centres unmarked)" value_relation_sign== value_measured=7.74
molecule="Nc1nc2c(ncn2[C@@H]2O[C@@H]3COP(O)(=S)O[C@H]4[C@H](F)[C@H](n5cnc6c(N)ncnc65)O[C@@H]4COP(=S)(S)O[C@@H]2[C@@H]3F)c(=O)[nH]1 (single isomer, unassigned) [Example 13]" value_relation_sign== value_measured=6.65
